Origin of the recorded values: the Immune Epitope Database (IEDB)

# tgt: HLA-A*30:01
# assay_summary: IEDB peptide-MHC binding, purified MHC/competitive/radioactivity; filed as Kd, often an IC50 or EC50 that approximates it; bounds were set here for any values at or beyond the usual limits of such assays
# condition_context: source organism: Dengue virus 3 Martinique/1243/1999
property: Kd (nM)
Numbers only here, please. The scale is nM.

Please review the entries below; each comes with its answer.
> print(dat)
     seq.text  property   u  reported
1   AIKVLKGFK        Kd  nM      1390
2  AVPVHWVPTS        Kd  nM     10500

# evaluate next
May I ask what Kd has been recorded for QRKKTGKPSI ?
1150
